system: XIP peptide (Xip251-270); test: compounds binding XIP fragment 251-270 – biochemical, small-molecule microarray, fluorescence 635/667 nm, 0.5 µg/mL protein, primary screen (AID 1183); settings: fluorescence 635 nm, higher = more signal
Documented composite z-score across a set of compounds
Reply with just the number.

As a guide, the following entries are already answered.
Looking up CC(c1ccccc1)C(O)C1C=CC2C(=O)N(Cc3ccccc3)C(=O)C2N1n1cnnc1 (stereo unspecified) , I see its composite z-score listed as 0.908

Looking up C=CCOC(=O)[C@H]1[C@@H]2C(=O)O[C@@H](c3ccccc3)[C@@H](c3ccccc3)N2[C@@H](c2ccc(OCCOC(=O)[C@H]3C[C@H]4C(=O)N[C@@H](CCCC[N+](C)(C)C)C(=O)N4[C@H]3c3ccc(O)cc3)cc2)[C@]12C(=O)Nc1ccccc12 , I see its composite z-score listed as 0.487

Looking up CO[C@H]1O[C@H](CO)[C@@H](OC(=O)Nc2cccc(F)c2)[C@H](OC(=O)Nc2ccccc2-c2ccccc2)[C@@H]1OC(=O)Nc1ccccc1-c1ccccc1 , I see its composite z-score listed as 0.805

More entries:
Looking up CCCNC(=O)[C@@]1(c2ccc([N+](=O)[O-])cc2)CC(=O)N(CC23CC4CC(CC(C4)C2)C3)[C@@H]1c1ccc(CO)cc1I , I see its composite z-score listed as 0.59

Looking up CO[C@H]1O[C@H](CO)[C@@H](OC(=O)Nc2ccc3c(c2)OCO3)[C@H](OC(=O)Nc2ccc3c(c2)OCO3)[C@H]1OC(=O)Nc1ccc2c(c1)OCO2 , I see its composite z-score listed as 0.842

Looking up C=C(C(=O)CC[C@@H](OC(=O)c1cccnc1)c1ccc(CO)o1)C(C)C , I see its composite z-score listed as 0.249

Looking up O=C1OCCC=C[C@H]2OC34C=CCN(c5ccc6ccccc6c5)C(=O)[C@H]3N(CCCCCCO)C(=O)[C@@H]4C12 (stereo partly specified) , I see its composite z-score listed as 0.79

Looking up O=C1O[C@@H](c2ccccc2)[C@@H](c2ccccc2)N2[C@@H](c3ccc(O)cc3)[C@]3(C(=O)Nc4ccccc43)[C@@H](C(=O)NC[C@H](O)c3ccccc3)[C@H]12 , I see its composite z-score listed as 0.232

Looking up CN(C)CCCN1C(=O)[C@@]2(c3ccc([N+](=O)[O-])cc3)CC(=O)N(C3CCCCC3)[C@@H]2c2ccc(CO)cc21 , I see its composite z-score listed as -0.0092

Looking up C=CCN1C(=O)[C@@]2(O[C@@H](CCO)[C@H]([Si](C)(C)c3ccc(OC)cc3)[C@H]2C)c2cc(N3C(=O)COc4ccccc43)ccc21 , I see its composite z-score listed as 0.623

Looking up CC(C)NC(=O)[C@@H]1c2ccccc2C(=O)N(C2CCCCC2)[C@H]1c1ccc(CO)cc1 , I see its composite z-score listed as 0.254

These entries and their values trace back to PubChem BioAssay.
